- Organism: Cavia porcellus
- assay.protocol: Intrinsic activity at muscarinic M4 receptor in guinea pig lung assessed as inhibition of electrically-stimulated muscle contraction relative to bathanecol
readout.type: Intrinsic activity
Answer as a number with no unit attached.

Worked cases, Intrinsic activity given:
C[C@@H]1COC[C@@H](C[N+](C)(C)C)O1.[I-] ... 1
C[C@@H]1OC[C@@H](C[N+](C)(C)C)O[C@H]1C.[I-] (relative stereo) ... 0.35
C[C@H]1OC[C@@H](C[N+](C)(C)C)OC1(C)C.[I-] (relative stereo) ... 0
C[C@H]1CO[C@H](C[N+](C)(C)C)CO1.[I-] (relative stereo) ... 0.57
C[C@@H]1O[C@H](C[N+](C)(C)C)CO[C@@H]1C.[I-] (relative stereo) ... 0.5
CC1(C)COC[C@@H](C[N+](C)(C)C)O1.[I-] ... 0.18
C[C@H]1OC[C@@H](C[N+](C)(C)C)O[C@@H]1C.[I-] (relative stereo) ... 0.65
C[C@@H]1CO[C@H](C[N+](C)(C)C)CO1.[I-] (relative stereo) ... 0.55

// switching to the query molecule
IN: Could you tell me which Intrinsic activity is on file for CC1(C)CO[C@H](C[N+](C)(C)C)CO1.[I-] ?
OUT: 0.22

----------
- assay.system: UniProtKB Q8VH26
- Sequence (Q8VH26 1-587): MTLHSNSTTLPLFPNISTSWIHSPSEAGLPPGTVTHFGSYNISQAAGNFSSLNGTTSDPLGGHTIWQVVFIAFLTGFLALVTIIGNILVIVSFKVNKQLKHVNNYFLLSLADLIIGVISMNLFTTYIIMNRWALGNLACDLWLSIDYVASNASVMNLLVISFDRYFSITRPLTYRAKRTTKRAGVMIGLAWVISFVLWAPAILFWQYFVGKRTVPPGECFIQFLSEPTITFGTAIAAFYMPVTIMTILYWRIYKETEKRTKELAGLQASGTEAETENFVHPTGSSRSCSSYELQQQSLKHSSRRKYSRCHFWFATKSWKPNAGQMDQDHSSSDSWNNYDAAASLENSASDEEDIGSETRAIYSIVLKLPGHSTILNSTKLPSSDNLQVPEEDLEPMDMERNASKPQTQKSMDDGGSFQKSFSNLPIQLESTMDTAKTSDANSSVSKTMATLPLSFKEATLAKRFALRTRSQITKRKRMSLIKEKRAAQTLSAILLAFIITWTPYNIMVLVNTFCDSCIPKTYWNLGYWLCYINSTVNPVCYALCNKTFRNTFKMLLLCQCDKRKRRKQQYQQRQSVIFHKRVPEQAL
- assay.protocol: Intrinsic activity at muscarinic M3 receptor in guinea pig ileum assessed as inhibition of electrically-stimulated muscle contraction relative to bathanecol
- Assay type: tissue-based
Catalogue of compounds with associated Intrinsic activity
The answer should be written as a number, with no unit following it.

Here are 2 compounds together with their reported answers.
CC1(C)CO[C@H](C[N+](C)(C)C)CO1.[I-] ... 0.68
C[C@H]1OC[C@@H](C[N+](C)(C)C)OC1(C)C.[I-] (relative stereo) ... 0.47

IN: Which Intrinsic activity is reported for this compound? C[C@@H]1O[C@H](C[N+](C)(C)C)COC1(C)C.[I-] (relative stereo)
OUT: 0.47

----------
- assay.system: Muscarinic acetylcholine receptor M3 (Cavia porcellus)
- assay.protocol: Agonist activity at muscarinic M3 receptor in guinea pig ileum assessed as inhibition of electrically-stimulated muscle contraction
- Type: functional, tissue-based
readout.type: pD2
I only need the number, thanks.

Worked examples, 3 compounds total:
C[C@H]1OC[C@@H](C[N+](C)(C)C)OC1(C)C.[I-] (relative stereo) ... 5.25
C[C@@H]1OC[C@@H](C[N+](C)(C)C)O[C@@H]1C.[I-] (relative stereo) ... 4.91
C[C@@H]1COC[C@@H](C[N+](C)(C)C)O1.[I-] ... 6.02

IN: Find the recorded pD2 belonging to C[C@@H]1OC[C@@H](C[N+](C)(C)C)OC1(C)C.[I-] (relative stereo) and report it.
OUT: 5.7

----------
- assay.system: UniProtKB P08173
- Sequence (P08173 whole entry): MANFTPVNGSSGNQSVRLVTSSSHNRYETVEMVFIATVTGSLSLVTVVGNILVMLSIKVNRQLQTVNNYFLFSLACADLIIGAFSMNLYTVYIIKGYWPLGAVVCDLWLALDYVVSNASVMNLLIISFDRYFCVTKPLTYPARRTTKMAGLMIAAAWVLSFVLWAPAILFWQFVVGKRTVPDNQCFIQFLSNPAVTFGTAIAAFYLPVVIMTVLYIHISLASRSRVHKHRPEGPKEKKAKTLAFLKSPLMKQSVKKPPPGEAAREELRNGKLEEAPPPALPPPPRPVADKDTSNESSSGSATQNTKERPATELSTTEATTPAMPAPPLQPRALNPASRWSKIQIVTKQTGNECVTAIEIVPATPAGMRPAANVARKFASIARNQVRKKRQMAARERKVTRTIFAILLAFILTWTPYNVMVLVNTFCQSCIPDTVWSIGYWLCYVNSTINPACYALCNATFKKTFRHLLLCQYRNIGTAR
# pKi annotations
Please keep in mind that pKi is minus log10 of the molar concentration; only the number is needed.

C[C@@H]1O[C@H](C[N+](C)(C)C)COC1(C)C.[I-] (relative stereo) ... 4.24
C[C@@H]1CO[C@H](C[N+](C)(C)C)CO1.[I-] (relative stereo) ... 4.03

IN: Param item = C[C@@H]1OC[C@@H](C[N+](C)(C)C)O[C@H]1C.[I-] (relative stereo) ; retrieve measured pKi.
OUT: 4.51

IN: // query pKi value for entry CC1(C)OC[C@@H](C[N+](C)(C)C)OC1(C)C.[I-]
OUT: 4.27

IN: Look at this compound and give its reported pKi. C[C@H]1COC[C@@H](C[N+](C)(C)C)O1.[I-] (relative stereo)
OUT: 4.94

IN: Data request, read-out pKi, for C[C@@H]1OC[C@@H](C[N+](C)(C)C)OC1(C)C.[I-] (relative stereo)
OUT: 4.52
